Where these numbers come from: patent US20220162261A1

System Name: T1, rh integrin α4β7 (R&D Systems #5397-A30) (human, UniProt P13612 34-970; P26010 20-723)
T1 construct: bought; coated on a nickel coated plate; also called immobilized α4β7; immobilized α4β7 integrin protein
Test Protocol: competition ELISA vs MAdCAM-1
Bridge positions count the residues as written; N and C are the ends. Square brackets hold non-standard residues; d marks the D form. Phe(4-tBu) = CC(C)(C)c1ccc(C[C@H](N)C(=O)O)cc1; NMeR = CN[C@@H](CCCNC(=N)N)C(=O)O; β3hE = N[C@@H](CCC(=O)O)CC(=O)O; Pen = CC(C)(S)[C@H](N)C(=O)O
Quantity Kind: IC50

Below, 5 binders whose answers are already recorded.
Ac-[Pen][NMeR]SDTL[Pen]W[dE][dK]-NH2 (disulfide 1-7; also: dimer, two subunits joined by DIG linker, also called peptide 211) [SEQ ID NO: 211]: 3 nM
Ac-[Pen]RSDTLC[dK]-NH2 (disulfide 1-7; SMILES CC(=O)N[C@@H]1C(=O)N[C@@H](CCCNC(=N)N)C(=O)N[C@@H](CO)C(=O)N[C@@H](CC(=O)O)C(=O)N[C@@H]([C@@H](C)O)C(=O)N[C@@H](CC(C)C)C(=O)N[C@H](C(=O)N[C@H](CCCCN)C(N)=O)CSSC1(C)C, also called peptide 206) [SEQ ID NO: 206]: 97 nM
XRSDTLXWK ((Ac Pen N-Me-R S D T L Pen W k NH2)2 DIG; disulfide Pen-Pen, also called peptide 209) [SEQ ID NO: 209]: 2.3 nM
Ac-C[NMeR]SDTLCGEK-OH (disulfide 1-7 (inferred); also: dimer linked by DIG, attachment not given here, also called peptide 201) [SEQ ID NO: 201]: 1 nM
Ac-C[NMeR]SDTL[Pen]W[dK]-NH2 (disulfide 1-7; also: homodimer via DIG linker on D-Lys9 side chains, also called peptide 204) [SEQ ID NO: 204]: 2 nM

Exercise: Return reported IC50. Input binder: Ac-[Pen][NMeR]SDTL[Pen]W[β3hE][dK]-NH2 (disulfide 1-7; not fully specified (residue 10); printed as (Ac Pen N-Me-R S D T L Pen W b-h-E k NH2)2 DIG, disulfide Pen-Pen; also: dimer, two subunits joined by DIG linker, also called peptide 213; Peptide XX) [SEQ ID NO: 213]
Key: 4.7 nM

Exercise: Return reported IC50. Input binder: Ac-CRSDTLC-NH2 (disulfide 1-7 (inferred), also called peptide 195) [SEQ ID NO: 195]
Key: 97 nM

Exercise: Return reported IC50. Input binder: Ac-C[NMeR]SDTL[Pen]E[dK]-NH2 (disulfide 1-7; also: homodimer via DIG linker on D-Lys9 side chains, also called peptide 205) [SEQ ID NO: 205]
Key: 2.4 nM

Exercise: Return reported IC50. Input binder: Ac-[Pen][NMeR]SDTL[Pen]W[dE][dK]-OH (disulfide 1-7; not fully specified (residue 10); printed as (Ac Pen N-Me-R S D T L Pen W e k OH)2 DIG, disulfide Pen-Pen; also: dimer, two subunits joined by DIG linker, also called peptide 216) [SEQ ID NO: 216]
Key: 2.8 nM

Exercise: Return reported IC50. Input binder: Ac-[Pen][NMeR]SDTL[Pen][Phe(4-tBu)][β3hE][dK]-NH2 (disulfide 1-7; not fully specified (residue 10); printed as (Ac Pen N-Me-R S D T L Pen F(4-tBu) b-H-E k NH2)2 DIG, disulfide Pen-Pen; also: dimer, two subunits joined by DIG linker, also called peptide 218) [SEQ ID NO: 218]
Key: 2.8 nM

Exercise: Return reported IC50. Input binder: Ac-[Pen][NMeR]SDTL[Pen]WE[dK]-NH2 (disulfide 1-7; not fully specified (residue 10); printed as (Ac Pen N-Me-R S D T L Pen W E k NH2)2 DIG, disulfide Pen-Pen; also: dimer, two subunits joined by DIG linker, also called peptide 217) [SEQ ID NO: 217]
Key: 2.3 nM
